# testTarget: T1, HSPB5ACD (α-crystallin domain of HSPB5) (human)
# T1 chain: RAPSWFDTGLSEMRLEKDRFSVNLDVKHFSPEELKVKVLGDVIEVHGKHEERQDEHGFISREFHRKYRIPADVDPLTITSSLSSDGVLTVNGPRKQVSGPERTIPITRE
observedProperty: pKd
Remember, pKd is on a log scale: it is -log10 of the molar concentration.

binder | observedProperty | numericValue
TFRTEIKI [HSPB7 C-terminal peptide (residues 168-175, TFRTEIKI)] | pKd | 3.73

# next binder below
Input: Form field: reported pKd of ERTIPITRE (Limits are not printed. 156-164, containing the IPI motif, is taken by convention from the peptide in the HSPB5 ACD-peptide structure PDB 4M5S; check residues come from the IPI motif, not numbered in the text. Terminal chemistry not stated.) [HSPB5 C-terminal peptide (cognate peptide of HSPB5ACD)]
Output: 4.64
